Data origin, for the record: the supplement of paper PMC10724198

system: Saccharomyces cerevisiae; experiment: protein stability index of tFT-peptide fusion (C-terminal peptide) (PSI (0-1 scale)); higher = more stable (slower turnover); settings: genetic background: cdc53-1; temperature: 37 C;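 also: PSI is a weighted mean of sequencing reads over stability bins, variants kept only with over 10 reads, mCherry proximal and sfGFP distal, peptide attached via GGGS linker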
Answer no (0) if protein stability index is under 0.4, and yes (1) if it is 0.4 or more.

Task: # check: protein stability index of `VLGPRFCFVCHA` is greater than or equal to 0.4
Output: yes (1)

Task: Does the sequence `SLCSRLVVVAWF` have recorded protein stability index that is 0.4 or more?
Output: yes (1)

Task: Could you please find out whether `TRHIGQYIHKIT` has protein stability index that meets 0.4 or exceeds it?
Output: yes (1)

Task: Please check the record `AGLTLLWPLCLL` and state if its protein stability index is at or above 0.4.
Output: no (0)

Task: I'd appreciate it if you could say whether `IHTFSVVVVVAA` has protein stability index at least equal to 0.4.
Output: no (0)

Task: hey, is protein stability index for this one >= 0.4? `WVGGVLLSVVGG`
Output: yes (1)

Task: I'd appreciate it if you could say whether `LSLVYFAALFSF` has protein stability index at least equal to 0.4.
Output: yes (1)

Task: Kindly determine if protein stability index recorded for `GAVKCLVCLAVW` is above or exactly 0.4.
Output: no (0)

Task: Identify whether the reported protein stability index of the following sequence is 0.4 or greater: `GLFAVWVVGVWC`
Output: no (0)

Task: Quick check, protein stability index >= 0.4? `VFLLFFFGLFVF`
Output: no (0)

Task: Check the entry `RKNSQKILKLSG` : does protein stability index equal or exceed 0.4?
Output: yes (1)

Task: Could you please find out whether `EFWWPFDRRGVI` has protein stability index that meets 0.4 or exceeds it?
Output: yes (1)

---

system: Saccharomyces cerevisiae; assay: protein stability index of tFT-peptide fusion (C-terminal peptide) (PSI (0-1 scale)); higher = more stable (slower turnover); conditions: genetic background: wild type; temperature: 30 C
Can you tell me protein stability index for the items I'm about to list?

Task: Give recorded protein stability index. `ESVCFRPKCVCK`
Output: 0.593

Task: State its protein stability index for this sequence: `WTRFSEKIVILR`
Output: 0.582

Task: Entry `SNPSTNPCWKKK` needs its protein stability index filled in; supply it.
Output: 0.643

Task: Give a short answer stating reported protein stability index for `VMLSYCHNLTKI` .
Output: 0.646

Task: Tell us which protein stability index value is on record for `APKYPIQEWIKL`
Output: 0.594

Task: Supply measured protein stability index of `PPAHPRPPPPFL` in your reply.
Output: 0.762

---

tested on: Saccharomyces cerevisiae; experiment: protein stability index of tFT-peptide fusion (C-terminal peptide) (PSI (0-1 scale)); higher = more stable (slower turnover); details: genetic background: wild type; temperature: 30 C
Classify by measured protein stability index: yes if it is equal to or exceeds 0.7, no if it is smaller.

Task: Dear colleague, could you confirm whether `VLGVTVRFRGIS` has protein stability index at or above 0.7?
Output: no

Task: Check the entry `LNVEEGGGLENV` : does protein stability index equal or exceed 0.7?
Output: no

Task: Hi, just wondering whether `EVDGISTRAAVC` shows protein stability index of 0.7 or higher.
Output: no

Task: I'd appreciate it if you could say whether `SPRPDSVLLRSP` has protein stability index at least equal to 0.7.
Output: yes

Task: Please tell me: is the sequence `SGTSDDWWPGVA` at or over 0.7 in terms of protein stability index?
Output: yes

Task: For this sequence, is measured protein stability index 0.7 or higher? `TVRFYHGSFRAP`
Output: yes

Task: Decide: protein stability index of `FVMTYCLMSVSK` >= 0.7?
Output: no

Task: In plain terms: is recorded protein stability index at least 0.7 for `HWRCASLTLSAG` ?
Output: yes

Task: // inclusive: protein stability index at least 0.7? input: `FSVLRLVIVSLL`
Output: no

Task: I'd appreciate it if you could say whether `GRYLRRDLVGVF` has protein stability index at least equal to 0.7.
Output: no

Task: Dear colleague, could you confirm whether `QKNMVKKVENTR` has protein stability index at or above 0.7?
Output: yes

---

test system: Saccharomyces cerevisiae; assay: protein stability index of tFT-peptide fusion (C-terminal peptide) (PSI (0-1 scale)); higher = more stable (slower turnover); settings: genetic background: wild type; temperature: 30 C
Answer each item with its documented protein stability index.
Just the number, please, no unit attached.

Task: Provide measured protein stability index value, entry: `PRLWLYCLIISL`
Output: 0.14

Task: Return protein stability index for the following sequence: `FFSLRRAVTVSA`
Output: 0.2

Task: Supply measured protein stability index of `LGFSHTRAIFFV` in your reply.
Output: 0.213

Task: Tell me its protein stability index given `LFSTRRWISVCA` as the entry.
Output: 0.054

Task: # return recorded protein stability index for input `GAVRGWGWVSFV`
Output: 0.317

Task: Identify protein stability index associated with the sequence `LIMIRLLYLRLI`
Output: 0.0628

Task: Item `LPLPPPGSPPPL` : provide protein stability index
Output: 0.682

Task: Specify measured protein stability index for `WSCVGLWGRFCC` .
Output: 0.299

Task: Report measured protein stability index; entry is `TLDCKFGRGGIG`
Output: 0.321

Task: Using the record for `FSFLLYASLVTH` , state its measured protein stability index.
Output: 0.297

Task: Look up and report measured protein stability index for this entry: `IFHWLYLLIALI`
Output: 0.254

Task: Recall and state the measured protein stability index for `GRWVLALCLVCG` .
Output: 0.194

Task: Return protein stability index (reported value) for this sequence: `LRSVLGWGLFLA`
Output: 0.208

Task: State its protein stability index: `VFFHFFVCWRFV`
Output: 0.0548

Task: Write down protein stability index measured for item `LLCSLGFRFSLF`
Output: 0.328

Task: Supply recorded protein stability index for `VFLDCCLRVFVD` here.
Output: 0.222

Task: Please report protein stability index for the following sequence: `FGFFRLVIVCFR`
Output: 0.172

Task: For the sequence `GILLLLISRVVF` , give its measured protein stability index value.
Output: 0.227

Task: # return recorded protein stability index for entry `LPPSPPAPLSRL`
Output: 0.801

Task: Give recorded protein stability index. `VGAVGVCILFVW`
Output: 0.232

Task: Return protein stability index (reported value) for this sequence: `GVLFHIVLHFMV`
Output: 0.194

Task: Tell me protein stability index reported for `SCLSYRTRLLAF`
Output: 0.41

Task: Using known records, supply protein stability index for `SVKRVVPCLVSC`
Output: 0.337

Task: Return protein stability index for the following sequence: `EFWWPFDRRGVI`
Output: 0.712

Task: Entry `FWLFAFVIRKHI` needs its protein stability index filled in; supply it.
Output: 0.089

Task: Determine from records and report protein stability index for `WFFPVSPPVMAS`
Output: 0.211

Task: // Input: `LFTSGNSLVLVH` . Output its protein stability index only.
Output: 0.25

Task: Tell me its protein stability index given `KKKKKKKIKIMS` as the entry.
Output: 0.232

Task: Provide one value: measured protein stability index of `WISVRIFISCFF`
Output: 0.191

Task: Consider the sequence `CIVFVYCLFSCP` and give its recorded protein stability index.
Output: 0.207

Task: Output measured protein stability index for this item: `LFLSFLLFVLAF`
Output: 0.312

Task: Provide one value: measured protein stability index of `VLGPRFCFVCHA`
Output: 0.253

Task: Write down protein stability index measured for item `YILLRWVNLSCL`
Output: 0.156

Task: Report protein stability index for `VDSTCLLITLLA`
Output: 0.296

Task: Report protein stability index for `APLFPPPPARSL`
Output: 0.677

Task: Determine from records and report protein stability index for `GCGFSFFHIVVL`
Output: 0.152

Task: Output protein stability index of `VRFLSLNVLFFC`
Output: 0.244

Task: Answer with the recorded protein stability index of `VLARGFHCMYFC` only.
Output: 0.447

Task: Give me measured protein stability index, please, for this sequence: `GWGVFFVMRIQV`
Output: 0.198

Task: Give a short answer stating reported protein stability index for `FGVLFFVFVFVC` .
Output: 0.129

Task: Return protein stability index (reported value) for this sequence: `IIFACFYGVFLM`
Output: 0.0949

Task: Tell us which protein stability index value is on record for `SPSFLVIFTMLL`
Output: 0.444

Task: Note down protein stability index recorded for `SIPFWPVLFFLL`
Output: 0.091

Task: Determine its reported protein stability index: `FSGFPLTLSPPL`
Output: 0.679

Task: Return value of protein stability index for input `LCGIFTFRLSLL` , no commentary.
Output: 0.273

Task: Give protein stability index for the following sequence: `LPLLLFYLPIIW`
Output: 0.389

Task: Give protein stability index for the following sequence: `VPTRRRGNRRPA`
Output: 0.653

Task: Answer with the recorded protein stability index for the sequence listed here: `AVRLPFPLLVHL`
Output: 0.276

Task: Determine its reported protein stability index: `PCLLRYLVHPFP`
Output: 0.667

Task: Consider the sequence `RNNLHKKIRRGY` and give its recorded protein stability index.
Output: 0.251

Task: Write down protein stability index measured for item `LLLTAIRVLRMH`
Output: 0.149

Task: Give the measured protein stability index for `ISFQFFVCLCAR`
Output: 0.161

Task: Read the entry `LFYVSFLFMLLF` and write its reported protein stability index.
Output: 0.325

Task: Given `VYCCVRSLRVAI` , respond with its protein stability index.
Output: 0.428

Task: Query protein stability index for `VAFILVVCKGIG`
Output: 0.152

Task: Determine from records and report protein stability index for `TLLSSIFLCLVL`
Output: 0.462

Task: Tell us which protein stability index value is on record for `FRVSAFFLPFLS`
Output: 0.246

Task: Supply measured protein stability index of `GTMGWYSISRRL` in your reply.
Output: 0.646

Task: Item `WLCLAVLVRFPC` : provide protein stability index
Output: 0.248

Task: Recall and state the measured protein stability index for `LLLIGISFLIFY` .
Output: 0.21

Task: Determine from records and report protein stability index for `IHTFSVVVVVAA`
Output: 0.114

Task: Supply recorded protein stability index for `RHTVFFCQLLLV` here.
Output: 0.185

Task: Read off the recorded protein stability index for `FRFSCLFSLFLS`
Output: 0.143

Task: Name the recorded protein stability index of the item `LFGRVLSGILSV` in your answer.
Output: 0.524

Task: Indicate the recorded protein stability index value for this sequence: `FFCRWGSTVTLL`
Output: 0.427

Task: Determine its reported protein stability index: `QGGTWKKLVKMI`
Output: 0.101

Task: Kindly indicate its recorded protein stability index. Item: `PVSEPCAWRIIA`
Output: 0.0645

Task: Give recorded protein stability index. `LFAIFLVVLLFR`
Output: 0.201

Task: For the sequence `GSLLNLSLRWLV` , give its measured protein stability index value.
Output: 0.138

Task: Tell me protein stability index reported for `FGFFLFIFFFFR`
Output: 0.276

Task: Fill in protein stability index for record `LEVHGSCIFICV`
Output: 0.374

Task: Given the sequence `FCVLLFCAVSDL` , write its reported protein stability index.
Output: 0.24

Task: Specify measured protein stability index for `VFKLGWVLCVLL` .
Output: 0.165
